Numbers sourced from PubChem BioAssay AID1159580.

- assay summary: chemical genetic growth profiling, strain panel (AID 1159580);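 note: tested at 20 µM; growth read once vehicle control cultures reached saturation at 30 °C; 1 = growth at the plate median or of vehicle wells; lower values mean less growth of the strain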
- test conditions: S. cerevisiae deletion strains, growth OD, locus YDR150W, strain NUM1, active compounds read low
Among all 5,500 compounds or so, about 2,000 (36%) were called active. Not shown: some 18% with an inconclusive outcome. The list shows a part of the results.
Classify: Satisfied when normalized growth is strictly less than 0.9; Not satisfied when normalized growth is not.

Use these answered entries as a reference point.
Cc1c(N(C)C)c(=O)n(-c2ccccc2)n1C = Not satisfied
COC(=O)COc1ccc(Cl)cc1Cl = Not satisfied
CN1C(=O)CN=C(c2ccccc2)c2ccccc21 = Satisfied
Cc1nn(-c2ccccc2)nc1C(=O)NC(=O)N1CCCC1 = Satisfied

We now examine a further compound.
Find out if reported normalized growth for CCc1cccc(C)c1N(C(=O)CCl)C(C)COC (configuration not stated) is less than 0.9
Not satisfied

----------
- assay summary: chemical genetic growth profiling, strain panel (AID 1159580)
- test conditions: S. cerevisiae deletion strains, growth OD, locus YML120C, strain ndi1
Screen size: about 5,500 compounds; about 2,000 (36%) were called active. Not shown: some 18% with an inconclusive outcome. Rule as the data show it: active = normalized growth mostly below about 0.91 (no sharp cut-off); inconclusive = no clear call, values can overlap the other calls; inactive = mostly above about 0.92. This is one part of the list.
Result category, one only: true (1) (active), false (0) (inactive)

Use these answered entries as a reference point.
CC(=O)O[C@H]1C(=O)[C@@]2(C)C([C@H](OC(=O)c3ccccc3)[C@]3(O)C[C@H](OC(=O)[C@H](O)[C@@H](NC(=O)c4ccccc4)c4ccccc4)C(C)=C1C3(C)C)[C@]1(OC(C)=O)CO[C@@H]1C[C@@H]2O (stereo not given in full) = false (0)
CN1CCCC(n2nc(Cc3ccc(Cl)cc3)c3ccccc3c2=O)CC1 (stereo not given) = false (0)
COc1ccc(C(=O)c2ccccc2)c(O)c1 = true (1)
COc1ccc(C(=O)c2ccccc2O)c(O)c1 = true (1)

Each compound tested received a call. Report the one for COc1cc(O)c(C(=O)c2ccccc2)cc1O .
false (0)

----------
- assay summary: chemical genetic growth profiling, strain panel (AID 1159580)
- test conditions: S. cerevisiae deletion strains, growth OD, locus YML016C, strain PPZ1, active compounds read low
The whole screen tested about 5,500 compounds, of which about 2,000 (36%) were called active. Roughly 18% stayed inconclusive and do not appear here. Some of the results follow.
measurement type: normalized growth
Please reply with the number alone, leaving off any unit.

Illustrative cases are given below, each with its answer.
CCC(C(=O)O)c1ccccc1 (stereo unspecified) = 1
COc1cc(OC)c2c(c1)O[C@H](c1ccc(OC)c(OC)c1)[C@@H](O)C2 = 1.01
CNC1(C)C2CCC(C2)C1(C)C (stereo unspecified) = 0.993
O=C(/C=C/C=C/c1ccc2c(c1)OCO2)N1CCCCC1 = 0.961
COc1cc(OC)c2c(c1)OC(c1ccc(OC)c(OC)c1)C(O)C2 (stereo unspecified) = 1.01

Specify reported normalized growth for the compound shown: Oc1c(Cl)c(Cl)c(Cl)c(Cl)c1Cl
0.831

----------
Listing: normalized growth of selected molecules
- assay summary: chemical genetic growth profiling, strain panel (AID 1159580)
- test conditions: S. cerevisiae deletion strains, growth OD, locus YIL125W, strain kgd1, active compounds read low
Screen size: about 5,500 compounds; about 2,000 (36%) were called active. Another 18% or so got no clear call; they are omitted. This is one part of the list.
Please reply with the number alone, leaving off any unit.

Illustrative cases are given below, each with its answer.
CC(C(=O)O)c1ccc2c(c1)[nH]c1ccc(Cl)cc12 (stereo not given) = 0.929
O=C1C[C@@H](c2ccc(O)cc2)Oc2cc(O)cc(O)c21 = 1.01
COc1ccc(-c2coc3c(OC)c(OC)cc(OC)c3c2=O)cc1 = 0.992
O=C(O)c1cc(=O)c2cc(Cl)ccc2[nH]1 = 1.01
COc1ccc2cc1Oc1ccc(cc1)C[C@H]1c3cc(c(OC)cc3CCN1C)Oc1c(OC)c(OC)cc3c1[C@H](C2)N(C)CC3 = 1.01

Specify reported normalized growth for the molecule shown: OCc1ccccc1O[C@@H]1O[C@H](CO)[C@@H](O)[C@H](O)[C@H]1O
0.989

Specify reported normalized growth for the molecule shown: O=C1CC(c2ccccc2)Oc2ccccc21 (stereo not given)
0.956

Specify reported normalized growth for the molecule shown: COc1ccc(C2CC(=O)c3ccc(OC)cc3O2)cc1 (stereo not given)
0.94

Specify reported normalized growth for the molecule shown: C[C@@H]1O[C@@H](O[C@H]2[C@@H](Oc3cc(O)c4c(c3)O[C@H](c3ccc(O)cc3)CC4=O)O[C@H](CO)[C@@H](O)[C@@H]2O)[C@H](O)[C@H](O)[C@H]1O
0.999

Specify reported normalized growth for the molecule shown: O=C(O)c1cc(=O)c2ccc(Cl)cc2[nH]1
0.994

----------
- assay summary: chemical genetic growth profiling, strain panel (AID 1159580);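 note: tested at 20 µM; growth read once vehicle control cultures reached saturation at 30 °C; 1 = growth at the plate median or of vehicle wells; lower values mean less growth of the strain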
- test conditions: S. cerevisiae deletion strains, growth OD, locus YJL187C, strain SWE1, active compounds read low
The whole screen tested about 5,500 compounds, of which about 2,000 (36%) were called active. About 18% were inconclusive and are not listed. Some of the results follow.
Listing: normalized growth of selected compounds
Please reply with the number alone, leaving off any unit.

Illustrative cases are given below, each with its answer.
C[N+](C)(C)CC(=O)[O-] = 0.964
CC(C)N(C(=O)CCl)c1ccccc1 = 1.02
CC(SCc1ccccc1)C(=O)O (configuration not stated) = 0.986
OC(CCN1CCCCC1)(c1ccccc1)c1ccccc1 = 0.996
CCCCOc1ccc(OCCCN2CCOCC2)cc1 = 0.957
COc1ccc2c(c1)C1(C)CCC(=O)CC1CC2 (configuration not stated) = 1.01

Specify reported normalized growth for the compound shown: COc1cccc2c1CCC1CC(=O)CCC21C (configuration not stated)
1.01

----------
Listing: normalized growth of selected compounds
- assay summary: chemical genetic growth profiling, strain panel (AID 1159580);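 note: tested at 20 µM; growth read once vehicle control cultures reached saturation at 30 °C; 1 = growth at the plate median or of vehicle wells; lower values mean less growth of the strain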
- test conditions: S. cerevisiae deletion strains, growth OD, locus YLL026W, active compounds read low
The campaign covered roughly 5,500 compounds. About 2,000 (36%) were called active. About 18% were inconclusive and are not listed. Some of the results follow.
Please reply with the number alone, leaving off any unit.

Illustrative cases are given below, each with its answer.
COc1ccc([C@@H]2CC(=O)c3c(O)cc(O)cc3O2)cc1O = 0.993
COc1cccc([C@]2(O)CCCC[C@H]2CN(C)C)c1 = 0.949
c1ccc(CN(CC2=NCCN2)c2ccccc2)cc1 = 1.02
O=C(Cc1ccccc1)NO = 0.97
CN1CCc2cc3c(cc2C1O)OCO3 (stereo unspecified) = 0.998

Specify reported normalized growth for the compound shown: COc1ccc(C2CC(=O)c3ccc(OC)cc3O2)cc1 (stereo unspecified)
0.932

Specify reported normalized growth for the compound shown: O=C1CC(c2ccc(O)c(O)c2)Oc2cc(O)cc(O)c21 (stereo unspecified)
1

Specify reported normalized growth for the compound shown: C[C@@H]1O[C@@H](O[C@H]2[C@@H](Oc3cc(O)c4c(c3)O[C@H](c3ccc(O)cc3)CC4=O)O[C@H](CO)[C@@H](O)[C@@H]2O)[C@H](O)[C@H](O)[C@H]1O
0.974

Specify reported normalized growth for the compound shown: COc1ccc2cc1Oc1ccc(cc1)C[C@H]1c3cc(c(OC)cc3CCN1C)Oc1c(OC)c(OC)cc3c1[C@H](C2)N(C)CC3
1

Specify reported normalized growth for the compound shown: c1ccc(CC2=NCCN2)cc1
1.02

Specify reported normalized growth for the compound shown: CCCCOc1ccc(CC(=O)NO)cc1
0.981

----------
- assay summary: chemical genetic growth profiling, strain panel (AID 1159580);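 note: tested at 20 µM; growth read once vehicle control cultures reached saturation at 30 °C; 1 = growth at the plate median or of vehicle wells; lower values mean less growth of the strain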
- test conditions: S. cerevisiae deletion strains, growth OD, locus YHR094C, strain hxt1
About 2,000 (36%) of roughly 5,500 compounds were called active. Another 18% or so got no clear call; they are omitted. Rule as the data show it: active = normalized growth mostly below about 0.91 (no sharp cut-off); inconclusive = no clear call, values can overlap the other calls; inactive = mostly above about 0.92. Some of the results follow.
Result category, one only: active, inactive

Use these answered entries as a reference point.
CCCCCC(C)N (stereo unspecified) = inactive
O=C1C[C@@H](c2ccc(O)cc2)Oc2cc(O)cc(O)c21 = inactive
NC(N)=Nc1nc(CSCCC(N)=NS(N)(=O)=O)cs1 = inactive
CNC1(C)C2CCC(C2)C1(C)C (stereo unspecified) = inactive
C[CH2][Hg][S]c1ccccc1C(=O)O = active
Cc1ccc2c(c1)CC[C@H]1CC(=O)CC[C@]21C = inactive
S=C=NCc1ccccc1 = active
COc1ccc2c(c1)[C@@]1(C)CCC(=O)C[C@H]1CC2 = inactive
CCC(C(=O)O)c1ccccc1 (stereo unspecified) = inactive
COc1ccc(C2CC(=O)c3ccc(OC)cc3O2)cc1 (stereo unspecified) = inactive

Each molecule tested received a call. Report the one for OC(CCN1CCCCC1)(c1ccccc1)c1ccccc1 .
inactive

Each molecule tested received a call. Report the one for CC1(C)C2CC[C@]3(C)C(C(=O)C=C4[C@@H]5C[C@@](C)(C(=O)O)CC[C@]5(C)CC[C@]43C)[C@@]2(C)CC[C@@H]1O (stereo partly specified) .
inactive

Each molecule tested received a call. Report the one for C=CCc1ccc2c(c1)OCO2 .
inactive

Each molecule tested received a call. Report the one for COC(=O)COc1ccc(Cl)cc1Cl .
inactive
